tested on: Staphylococcus aureus ATCC 25923
measured quantity: MIC (µM)
# value in µM; strip the unit string

I looked up CC[C@H](C)[C@H](N)C(=O)N[C@@H](CC(C)C)C(=O)NCC(=O)N1CCC[C@H]1C(=O)N[C@H](C(=O)N[C@@H](CC(C)C)C(=O)NCC(=O)N[C@@H](CC(C)C)C(=O)N[C@H](C(=O)NCC(=O)N[C@@H](CC(N)=O)C(=O)N[C@@H](C)C(=O)N[C@@H](CC(C)C)C(=O)NCC(=O)NCC(=O)N[C@@H](CC(C)C)C(=O)N[C@H](C(=O)N[C@@H](CCCCN)C(=O)N[C@@H](CCCCN)C(=O)N[C@@H](CC(C)C)C(N)=O)[C@@H](C)CC)C(C)C)C(C)C [ILGPVLGLVGNALGGLIKKL] and its MIC for Staphylococcus aureus ATCC 25923 was 4.83

* * *

Lab note: MIC readings collected with Staphylococcus aureus ATCC 43300 for the following compounds.
# value in µM; strip the unit string

Past entries and their recorded results:
{"item smiles": "CC[C@H](C)[C@H](NC(=O)CN)C(=O)N[C@@H](CC(C)C)C(=O)NCC(=O)N[C@H](C(=O)N[C@H](C(=O)N[C@@H](Cc1ccccc1)C(=O)N[C@@H](CCCCN)C(=O)N[C@@H](C)C(=O)NCC(=O)N[C@@H](CCCCN)C(=O)NCC(=O)N[C@H](C(=O)N[C@H](C(=O)N[C@H]1CSSC[C@@H](C(=O)O)NC(=O)[C@H](CC(C)C)NC(=O)CNC(=O)[C@H]([C@@H](C)O)NC(=O)[C@H](CC(C)C)NC(=O)CNC1=O)C(C)C)[C@@H](C)CC)C(C)C)[C@@H](C)O", "unit tag": "µM", "test result": 12.5}
{"item smiles": "CC(C)C[C@H](NC(=O)[C@H](CCCCN)NC(=O)[C@H](CCCCN)NC(=O)[C@H](C)NC(=O)[C@@H](NC(=O)[C@H](CCCCN)NC(=O)[C@H](CO)NC(=O)[C@H](CC(C)C)NC(=O)[C@H](Cc1c[nH]c2ccccc12)NC(=O)[C@H](CC(C)C)NC(=O)[C@H](CCCCN)NC(=O)[C@H](CCCCN)NC(=O)[C@H](C)NC(=O)[C@@H](NC(=O)[C@H](CCCCN)NC(=O)[C@H](CO)NC(=O)[C@H](CC(C)C)NC(=O)[C@@H](N)Cc1c[nH]c2ccccc12)[C@@H](C)O)[C@@H](C)O)C(N)=O", "unit tag": "µM", "test result": 128}
{"item smiles": "CC[C@H](C)[C@H](NC(=O)CN)C(=O)N[C@@H](Cc1c[nH]c2ccccc12)C(=O)N[C@@H](CO)C(=O)N[C@@H](CO)C(=O)N[C@@H](CC(C)C)C(=O)N[C@@H](CC(C)C)C(=O)N[C@@H](CCCCN)C(=O)N[C@@H](CCCCN)C(=O)N[C@@H](CC(C)C)C(=O)N[C@@H](CCCCN)C(=O)N[C@@H](CCCCN)C(=O)N[C@H](C(=O)N[C@H](C(=O)N[C@@H](C)C(=O)N[C@@H](CCCCN)C(N)=O)[C@@H](C)CC)[C@@H](C)CC", "unit tag": "µM", "test result": 20}
{"item smiles": "NC(=O)[C@H](Cc1c[nH]c2ccccc12)NC(=O)[C@H](Cc1c[nH]c2ccccc12)NC(=O)[C@H](Cc1c[nH]c2ccccc12)NC(=O)[C@H](Cc1c[nH]c2ccccc12)NC(=O)[C@@H]1CCCN1C(=O)[C@H](CCCN=C(N)N)NC(=O)[C@@H]1CCCN1C(=O)[C@H](CCCN=C(N)N)NC(=O)[C@@H]1CCCN1C(=O)[C@H](CCCN=C(N)N)NC(=O)[C@@H]1CCCN1C(=O)[C@H](CCCN=C(N)N)NC(=O)[C@@H](N)CCCN=C(N)N", "unit tag": "µM", "test result": 8.28}

Now consider the entry below.
According to the records, this compound CC[C@H](C)[C@H](NC(=O)[C@H](CCCCN)NC(=O)[C@@H](NC(=O)[C@H](CCC(N)=O)NC(=O)[C@@H](N)CCCN=C(N)N)[C@@H](C)CC)C(=O)N[C@@H](Cc1c[nH]c2ccccc12)C(=O)N[C@@H](CCCN=C(N)N)C(=O)N[C@@H](CCCN=C(N)N)C(=O)N[C@@H](CCSC)C(=O)N[C@@H](CCCCN)C(=O)N[C@@H](Cc1c[nH]c2ccccc12)C(=O)N[C@@H](CCCCN)C(=O)N[C@@H](CCCCN)C(N)=O displays MIC of 13.5

* * *

test system: Pseudomonas aeruginosa ATCC 27853; experiment: ≥ marks a high value that may be exact or a test limit, other limits are often not marked, values filed in µg/mL are converted to µM
Listed below: log10(MIC) values for each entry.
The base-10 logarithm of MIC, taken with MIC in µM, is what appears here.

Past entries and their recorded results:
{"compound": "CC[C@H](C)[C@H](NC(=O)[C@H](CCCN=C(N)N)NC(=O)[C@H](CCCCN)NC(=O)[C@@H](NC(=O)[C@@H](NC(=O)[C@H](CCCN=C(N)N)NC(=O)[C@@H](N)CCCCN)[C@@H](C)CC)C(C)C)C(=O)N[C@@H](CCCCN)C(=O)N[C@@H](CCCCN)C(=O)N[C@@H](Cc1ccccc1)C(=O)N[C@@H](CC(C)C)C(=O)N[C@@H](CCCN=C(N)N)C(=O)O [KRIVKRIKKFLR]", "tested target": "Pseudomonas aeruginosa ATCC 27853", "log10(MIC)": 0.10}
{"compound": "CC(C)C[C@H](NC(=O)CNC(=O)[C@H](CCCCN)NC(=O)[C@H](CC(C)C)NC(=O)[C@H](CC(C)C)NC(=O)[C@H](CCCCN)NC(=O)[C@@H](N)CCCCN)C(=O)N[C@@H](CC(C)C)C(=O)N[C@@H](CCCCN)C(=O)NCC(=O)N[C@@H](Cc1c[nH]c2ccccc12)C(N)=O [KKLLKGLLKGW]", "tested target": "Pseudomonas aeruginosa ATCC 27853", "log10(MIC)": 1.51}
{"compound": "CC[C@H](C)[C@@H]1NC(=O)[C@H](C)NC(=O)[C@@H](NC(=O)[C@H](Cc2ccccc2)NC(=O)[C@@H](NC(=O)[C@H](CCCCN)NC(=O)[C@H](Cc2c[nH]c3ccccc23)NC(=O)[C@@H]2CCCN2C(=O)[C@H](CC(C)C)NC(=O)[C@H](Cc2ccccc2)NC(=O)[C@H](CCCCN)NC(=O)[C@@H](N)CCCCN)[C@@H](C)CC)CSSC[C@@H](C(=O)O)NC(=O)[C@H](CCCCN)NC(=O)[C@H](CCCCN)NC(=O)[C@H]([C@@H](C)O)NC1=O [KKFLPWKIFCAITKKC]", "tested target": "Pseudomonas aeruginosa ATCC 27853", "log10(MIC)": 1.81}

According to the records, this compound CSCC[C@H](NC(=O)[C@H](CCCN=C(N)N)NC(=O)[C@H](Cc1c[nH]c2ccccc12)NC(=O)[C@H](CCC(N)=O)NC(=O)[C@H](Cc1c[nH]c2ccccc12)NC(=O)[C@H](CCCN=C(N)N)NC(=O)[C@@H](N)CCCN=C(N)N)C(=O)N[C@@H](CCCCN)C(=O)N[C@@H](CCCCN)C(=O)N[C@@H](CC(C)C)C(=O)NCC(=O)O [RRWQWRMKKLG] displays log10(MIC) of 1.18

According to the records, this compound CC(C)C[C@H](NC(=O)CNC(=O)[C@H](CC(C)C)NC(=O)[C@H](Cc1c[nH]c2ccccc12)NC(=O)[C@H](CC(C)C)NC(=O)CNC(=O)[C@H](CC(C)C)NC(=O)[C@H](CCCCN)NC(=O)[C@H](CCCCN)NC(=O)CN)C(=O)N[C@@H](CCCCN)C(=O)N[C@@H](CCCCN)C(=O)NCC(N)=O [GKKLGLWLGLKKG] displays log10(MIC) of 1.20

According to the records, this compound CC[C@H](C)[C@H](N)C(=O)N[C@@H](CC(C)C)C(=O)N[C@@H](CCCN=C(N)N)C(=O)N[C@@H](C)C(=O)N[C@@H](Cc1c[nH]c2ccccc12)C(=O)N[C@@H](CCCCN)C(=O)N[C@@H](CCCCN)C(=O)N[C@@H](Cc1ccc(O)cc1)C(=O)NCC(=O)N1CCC[C@H]1C(=O)N[C@H](C(=O)N[C@H](C(=O)N[C@H](C(=O)N1CCC[C@H]1C(=O)N[C@H](C(=O)N[C@H](C(=O)N[C@@H](CCCN=C(N)N)C(=O)N[C@H](C(N)=O)[C@@H](C)CC)[C@@H](C)CC)[C@@H](C)CC)C(C)C)[C@@H](C)CC)[C@@H](C)CC [ILRAWKKYGPIIVPIIRI] displays log10(MIC) of 0.90

* * *

tested on: Escherichia coli K88
measured quantity: MIC (µM)
# value in µM; strip the unit string

{"item smiles": "CC[C@H](C)[C@H](NC(=O)[C@H](Cc1c[nH]c2ccccc12)NC(=O)[C@H](CCCCN)NC(=O)[C@H](Cc1c[nH]c2ccccc12)NC(=O)[C@@H](NC(=O)[C@H](Cc1c[nH]c2ccccc12)NC(=O)CNC(=O)[C@@H](NC(=O)[C@H](CCCCN)NC(=O)[C@H](CCCCN)NC(=O)[C@H](Cc1c[nH]c2ccccc12)NC(=O)[C@@H](N)CCCN=C(N)N)[C@@H](C)CC)C(C)C)C(N)=O", "measured quantity": "MIC", "unit tag": "µM", "test result": 2}

Now consider the entry below.
I looked up CC[C@H](C)[C@H](NC(=O)[C@H](Cc1c[nH]c2ccccc12)NC(=O)[C@H](CCCCN)NC(=O)[C@H](CC(C)C)NC(=O)[C@@H](NC(=O)[C@H](CCCCN)NC(=O)CNC(=O)[C@@H](NC(=O)[C@H](CCCCN)NC(=O)[C@H](CCCCN)NC(=O)[C@H](CC(C)C)NC(=O)[C@@H](N)CCCN=C(N)N)[C@@H](C)CC)C(C)C)C(N)=O and its MIC for Escherichia coli K88 was 4
